Each recorded value in this set is attributed to ChEMBL document CHEMBL1201861.

Test system: LCLC-103H cell line
ASSAY SUMMARY: cells
Format: functional, cell-based, Homo sapiens
STUDY CONDITIONS: Homo sapiens, LCLC-103H
Description: SANGER: Inhibition of human LCLC-103H cell growth in a cell viability assay.
pIC50: −log10 of the molar value.
If the reported pIC50 equals or exceeds 7, assign 1. If not, assign -1.

Quick check, pIC50 >= 7? "O=C(c1cc(Cc2n[nH]c(=O)c3ccccc23)ccc1F)N1CCN(C(=O)C2CC2)CC1" -1

Item CN(Cc1cnc2nc(N)nc(N)c2n1)c1ccc(C(=O)N[C@@H](CCC(=O)O)C(=O)O)cc1 [METHOTREXATE] with pIC50 of 7 or above? -1

Given "CCC1=C[C@@H]2CN(C1)Cc1c([nH]c3ccccc13)[C@@](C(=O)OC)(c1cc3c(cc1OC)N(C)[C@H]1[C@@](O)(C(=O)OC)[C@H](OC(C)=O)[C@]4(CC)C=CCN5CC[C@]31[C@@H]54)C2" , state whether its pIC50 is at least 7. 1

Form field: pIC50 at least 7? Entry: "C=CCc1cccc(/C=N/NC(=O)CN2CCN(Cc3ccccc3)CC2)c1O" -1

Please check the record "Cc1ccc(Nc2nccc(N(C)c3ccc4c(C)n(C)nc4c3)n2)cc1S(N)(=O)=O" and state if its pIC50 is at or above 7. -1

# bool: pIC50 of "COc1ccc(-c2ccc3c(N4CCOC[C@@H]4C)nc(N4CCOC[C@@H]4C)nc3n2)cc1CO" >= 7 -1

====

Test system: ME-180;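 further: cell viability assay measuring growth inhibition of ME-180 cells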
ASSAY SUMMARY: cells
Type: functional, cell-based
STUDY CONDITIONS: Homo sapiens
Description: SANGER: Inhibition of human ME-180 cell growth in a cell viability assay.
ENDPOINT LABEL: IC50 (µM)
Report only the number, with the unit µM understood.

[[record]]
smiles_representation = "CC(=O)O[C@@]12CO[C@@H]1C[C@H](O)[C@@]1(C)C(=O)[C@H](O)C3=C(C)[C@@H](OC(=O)[C@H](O)[C@@H](NC(=O)OC(C)(C)C)c4ccccc4)C[C@@](O)([C@@H](OC(=O)c4ccccc4)[C@H]21)C3(C)C"
endpoint_label = "IC50"
value_reported = 0.00169


Field: next compound
# compound "COC(=O)CNC(=O)C(=O)OC" ; its IC50 = 257

====

Test system: NCI-H1793;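 further: cell growth inhibition, read out by a cell viability assay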
ASSAY SUMMARY: cells
Assay type: functional, cell-based, Homo sapiens
STUDY CONDITIONS: nci-h1793
Description: SANGER: Inhibition of human NCI-H1793 cell growth in a cell viability assay.
ENDPOINT LABEL: IC50

Entry "Cc1cc([C@@H](C)Nc2ccccc2C(=O)O)c2nc(N3CCOCC3)cc(=O)n2c1" — recorded IC50 = > 5.12 µM

====

Here, each record is paired with measured IC50 data.
System: VM-CUB-1;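 further: cell viability assay measuring growth inhibition of the human VM-CUB-1 cell line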
ASSAY SUMMARY: cells
Assay type: functional, cell-based
STUDY CONDITIONS: Homo sapiens
Description: SANGER: Inhibition of human VM-CUB-1 cell growth in a cell viability assay.

The examples below pair each entry with its known result.
[[record]]
compound = "COc1ccc(C2=N[C@@H](c3ccc(Cl)cc3)[C@@H](c3ccc(Cl)cc3)N2C(=O)N2CCNC(=O)C2)c(OC(C)C)c1"
study_target = "VM-CUB-1"
value_reported = "> 8000 nM"

[[record]]
compound = "CN(Cc1cnc2nc(N)nc(N)c2n1)c1ccc(C(=O)N[C@@H](CCC(=O)O)C(=O)O)cc1 [METHOTREXATE]"
study_target = "VM-CUB-1"
value_reported = "> 200 nM"

[[record]]
compound = "C=CCNC1=C2C[C@@H](C)C[C@H](OC)[C@H](O)[C@@H](C)/C=C(\\C)[C@H](OC(N)=O)[C@@H](OC)/C=C\\C=C(/C)C(=O)NC(=CC1=O)C2=O"
study_target = "VM-CUB-1"
value_reported = "36.6 nM"


# evaluate next
Record "Cc1cc([C@@H](C)Nc2ccccc2C(=O)O)c2nc(N3CCOCC3)cc(=O)n2c1" has VM-CUB-1 IC50 equal to > 5120 nM

====

Tested on: NCI-H2171
ASSAY SUMMARY: cells
Type: functional, cell-based
STUDY CONDITIONS: Homo sapiens
Description: SANGER: Inhibition of human NCI-H2171 cell growth in a cell viability assay.
pIC50: −log10 of the molar value.
Some molecules, each annotated with its measured pIC50.

[[record]]
molecule = "Cc1cnc(-c2cnc(NCCNc3ccc(C#N)cn3)nc2-c2ccc(Cl)cc2Cl)[nH]1 [LADUVIGLUSIB]"
value_reported = "< 5.59"


response.value for CO[C@H]1C[C@@H]2CC[C@@H](C)[C@@](O)(O2)C(=O)C(=O)N2CCCC[C@H]2C(=O)O[C@H]([C@H](C)C[C@@H]2CC[C@@H](O)[C@H](OC)C2)CC(=O)[C@H](C)/C=C(\C)[C@@H](O)[C@@H](OC)C(=O)[C@H](C)C[C@H](C)/C=C/C=C/C=C/1C [SIROLIMUS] (field: pIC50) = < 7.00

Lab note: Cc1cc([C@@H](C)Nc2ccccc2C(=O)O)c2nc(N3CCOCC3)cc(=O)n2c1 [AZD-6482] gave pIC50 of < 5.29

Sure, the documented pIC50 for C=C1C(=O)O[C@@H]2C3O[C@]3(C)CC/C=C(\C)CC[C@@H]12 (some centres not stated) is < 5.30

====

Tested on: OMC-1;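 further: growth inhibition of the OMC-1 cell line, measured by a cell viability assay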
ASSAY SUMMARY: cells
Assay type: functional, cell-based, Homo sapiens
STUDY CONDITIONS: Homo sapiens, OMC-1
Description: SANGER: Inhibition of human OMC-1 cell growth in a cell viability assay.
# IC50 values compiled below

Known results for compounds:
[[record]]
smiles_representation = "CO[C@H]1C[C@@H]2CC[C@@H](C)[C@@](O)(O2)C(=O)C(=O)N2CCCC[C@H]2C(=O)O[C@H]([C@H](C)C[C@@H]2CC[C@@H](O)[C@H](OC)C2)CC(=O)[C@H](C)/C=C(\\C)[C@@H](O)[C@@H](OC)C(=O)[C@H](C)C[C@H](C)/C=C/C=C/C=C/1C"
study_target = "OMC-1"
value_reported = "> 100 nM"

[[record]]
smiles_representation = "O=c1cc(-c2cccc3c2Sc2ccccc2S3)oc(N2CCOCC2)c1"
study_target = "OMC-1"
value_reported = "> 10000 nM"

[[record]]
smiles_representation = "CS(=O)(=O)CCNCc1ccc(-c2ccc3ncnc(Nc4ccc(OCc5cccc(F)c5)c(Cl)c4)c3c2)o1"
study_target = "OMC-1"
value_reported = "> 2000 nM"


Now for the compound whose IC50 we want.
# IC50 of "CCC1=C[C@@H]2CN(C1)Cc1c([nH]c3ccccc13)[C@@](C(=O)OC)(c1cc3c(cc1OC)N(C)[C@H]1[C@@](O)(C(=O)OC)[C@H](OC(C)=O)[C@]4(CC)C=CCN5CC[C@]31[C@@H]54)C2" = > 64 nM

====

Items are presented alongside their recorded pIC50.
System: DBTRG-05MG;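 further: cell viability assay measuring growth inhibition of human DBTRG-05MG cells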
ASSAY SUMMARY: cells
Format: functional, cell-based, Homo sapiens
STUDY CONDITIONS: Homo sapiens, DBTRG-05MG
Description: SANGER: Inhibition of human DBTRG-05MG cell growth in a cell viability assay.
pIC50: −log10 of the molar value.

[[record]]
smiles_representation = "COc1ccc(-c2ccc3c(N4CCOC[C@@H]4C)nc(N4CCOC[C@@H]4C)nc3n2)cc1CO"
value_reported = "< 5.70"

[[record]]
smiles_representation = "CN(C)C/C=C/C(=O)Nc1cc2c(Nc3ccc(F)c(Cl)c3)ncnc2cc1O[C@H]1CCOC1"
value_reported = "< 6.30"

[[record]]
smiles_representation = "Cn1cc(C2=C(c3ccc(Cl)cc3Cl)C(=O)NC2=O)c2ccccc21"
value_reported = "< 5.00"


Next, consider the following compound.
Reported pIC50 ( "C=CCc1cccc(/C=N/NC(=O)CN2CCN(Cc3ccccc3)CC2)c1O" ) = < 5.59

====

System: NCCIT
ASSAY SUMMARY: SANGER: Inhibition of human NCCIT cell growth in a cell viability assay.
Type: functional, cell-based
Some molecules, each annotated with its measured IC50.

[[record]]
smiles_representation = "CNC(=O)c1cc(Oc2ccc(NC(=O)Nc3ccc(Cl)c(C(F)(F)F)c3)cc2)ccn1"
value_reported = "> 4 µM"


// sample "Cc1ccc(Nc2nccc(N(C)c3ccc4c(C)n(C)nc4c3)n2)cc1S(N)(=O)=O" , its IC50 was > 8 µM

According to the records, this molecule "C[C@]1(O)C[C@@H](c2nc(-c3ccc4ccc(-c5ccccc5)nc4c3)c3c(N)nccn32)C1" displays IC50 of > 2.56 µM

====

IC50 for assorted molecules
Test system: AN3-CA
ASSAY SUMMARY: cells
Assay type: functional, cell-based
STUDY CONDITIONS: Homo sapiens
Description: SANGER: Inhibition of human AN3-CA cell growth in a cell viability assay.

[[record]]
smiles_representation = "O=C1N=C(NCc2cccs2)S/C1=C\\c1ccc2ncccc2c1"
value_reported = "> 5 µM"

[[record]]
smiles_representation = "CCOc1nc(NC(=O)Cc2cc(OC)ccc2OC)cc(N)c1C#N"
value_reported = "> 10 µM"


Would you kindly look at the next entry?
So, "Cc1cnc(-c2cnc(NCCNc3ccc(C#N)cn3)nc2-c2ccc(Cl)cc2Cl)[nH]1" ? Its IC50 was > 2.56 µM

====

Test system: SW872;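 further: growth inhibition of SW872 cells, read out by a viability assay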
ASSAY SUMMARY: cells
Assay type: functional, cell-based, Homo sapiens
STUDY CONDITIONS: Homo sapiens, SW872
Description: SANGER: Inhibition of human SW872 cell growth in a cell viability assay.
ENDPOINT LABEL: IC50

[[record]]
compound = "COc1ccc(C2=N[C@@H](c3ccc(Cl)cc3)[C@@H](c3ccc(Cl)cc3)N2C(=O)N2CCNC(=O)C2)c(OC(C)C)c1 [NUTLIN-3]"
endpoint_label = "IC50"
value_reported = "> 8 µM"

[[record]]
compound = "CNC(=O)c1cc(Oc2ccc(NC(=O)Nc3ccc(Cl)c(C(F)(F)F)c3)cc2)ccn1 [SORAFENIB]"
endpoint_label = "IC50"
value_reported = "> 4 µM"


Lab book: IC50 of "CC(=O)O[C@@H]1[C@@H](OC(C)=O)[C@@H](O)[C@H](Oc2c(-c3ccc(O)cc3)oc3cc(O)cc(O)c3c2=O)O[C@H]1C" noted as > 10 µM

For this compound ( CC1=C2C[C@H]3[C@@H](CC=C4C[C@@H](O)CC[C@@]43C)[C@@H]2CC[C@]12O[C@@H]1C[C@H](C)CN[C@H]1[C@H]2C [CYCLOPAMINE] ), measured IC50 is > 16 µM
